assay system: human ether-à-go-go-related gene (hERG) potassium channel (human);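 note: peak tail current of the secondary pulse compared with the same well before compound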
Sequence (Q12809 whole entry, looked up): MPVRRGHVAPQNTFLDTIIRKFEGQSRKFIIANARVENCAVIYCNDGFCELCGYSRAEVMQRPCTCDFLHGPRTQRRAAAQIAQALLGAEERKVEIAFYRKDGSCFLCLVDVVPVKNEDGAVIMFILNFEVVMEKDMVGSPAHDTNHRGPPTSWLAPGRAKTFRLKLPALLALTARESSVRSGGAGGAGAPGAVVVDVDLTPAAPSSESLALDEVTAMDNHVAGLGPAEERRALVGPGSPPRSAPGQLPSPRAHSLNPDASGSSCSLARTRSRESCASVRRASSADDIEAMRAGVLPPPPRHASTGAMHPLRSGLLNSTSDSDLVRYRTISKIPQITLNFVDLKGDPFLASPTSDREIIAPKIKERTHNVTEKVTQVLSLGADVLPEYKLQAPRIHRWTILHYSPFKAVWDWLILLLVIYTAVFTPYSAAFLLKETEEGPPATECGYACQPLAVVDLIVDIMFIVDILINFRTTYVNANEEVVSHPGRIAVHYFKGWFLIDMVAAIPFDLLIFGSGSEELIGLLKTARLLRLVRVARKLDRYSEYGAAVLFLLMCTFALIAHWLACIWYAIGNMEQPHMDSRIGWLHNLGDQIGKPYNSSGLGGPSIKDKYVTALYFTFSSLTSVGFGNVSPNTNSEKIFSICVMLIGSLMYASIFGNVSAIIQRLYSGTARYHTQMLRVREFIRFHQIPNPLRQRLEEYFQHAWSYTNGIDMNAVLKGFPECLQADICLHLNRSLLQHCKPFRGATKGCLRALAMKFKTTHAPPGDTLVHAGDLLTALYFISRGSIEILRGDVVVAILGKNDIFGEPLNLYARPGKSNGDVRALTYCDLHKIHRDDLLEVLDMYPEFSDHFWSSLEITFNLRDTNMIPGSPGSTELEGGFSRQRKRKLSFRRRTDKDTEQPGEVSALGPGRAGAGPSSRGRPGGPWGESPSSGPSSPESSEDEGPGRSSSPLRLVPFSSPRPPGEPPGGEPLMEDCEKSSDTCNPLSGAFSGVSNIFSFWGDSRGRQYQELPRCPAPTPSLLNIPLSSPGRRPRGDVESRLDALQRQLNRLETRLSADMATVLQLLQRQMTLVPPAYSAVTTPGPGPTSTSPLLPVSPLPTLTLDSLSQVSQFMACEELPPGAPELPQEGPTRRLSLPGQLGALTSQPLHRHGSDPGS
procedure text: primary screen, population patch clamp on CHO cells stably expressing hERG; higher = less effect of the substance
Screen size: about 310,000 compounds; about 14,000 (4.5%) showed an effect of 50% or more. The effect is printed as a negative number. The list comes from a sample in which strong results are over-represented; it also holds close analogues and randomly drawn compounds.
Binning rule for recorded hERG current change (%, negative = inhibition) at 10uM: low = under -50%, middle = from -50% up to -10%, high = -10% and over

| molecule | assay system | label value |
| --- | --- | --- |
| CC(=O)Nc1ccc(CN2CCCC(C(=O)c3cccc(C(F)(F)F)c3)C2)cc1 (stereo not shown) | human ether-à-go-go-related gene (hERG) potassium channel (human) | middle |
| CCSc1nnc(NC(=O)[C@@H](NC(=O)c2ccccc2F)C(C)C)s1 | human ether-à-go-go-related gene (hERG) potassium channel (human) | high |
| COc1ccc2cc(C(=O)C3CCCN(C(=O)CCc4ccccn4)C3)ccc2c1 (stereo not shown) | human ether-à-go-go-related gene (hERG) potassium channel (human) | middle |
| COc1ccc(C(=O)C2CCCN(Cc3ccon3)C2)cc1OC (stereo not shown) | human ether-à-go-go-related gene (hERG) potassium channel (human) | high |
| Cc1ccc(CSCCNC(=O)c2ccc(C)cc2)cc1 | human ether-à-go-go-related gene (hERG) potassium channel (human) | high |
| Cc1ccc(CSCCNC(=O)c2cccc([N+](=O)[O-])c2)cc1 | human ether-à-go-go-related gene (hERG) potassium channel (human) | low |
| O=C(Cc1ccc([N+](=O)[O-])cc1)NC1CCCCCC1 | human ether-à-go-go-related gene (hERG) potassium channel (human) | high |
| CC(CCc1ccc(O)cc1)N(C)CCc1ccccc1 (stereo not shown) | human ether-à-go-go-related gene (hERG) potassium channel (human) | low |
| Cc1ccc(CSCCNC(=O)c2ccccc2)cc1 | human ether-à-go-go-related gene (hERG) potassium channel (human) | middle |
| COc1ccc2cc(C(=O)C3CCCN(Cc4ccccn4)C3)ccc2c1 (stereo not shown) | human ether-à-go-go-related gene (hERG) potassium channel (human) | low |
| COc1ccc(C(=O)C2CCCN(Cc3ccon3)C2)c(OC)c1 (stereo not shown) | human ether-à-go-go-related gene (hERG) potassium channel (human) | low |
| CCC1Sc2ccc(S(=O)(=O)CCC(=O)NC3CCCCCC3)cc2NC1=O (stereo not shown) | human ether-à-go-go-related gene (hERG) potassium channel (human) | high |
| COc1ccc(C(=O)C2CCCN(Cc3cccc(C)n3)C2)c(OC)c1 (stereo not shown) | human ether-à-go-go-related gene (hERG) potassium channel (human) | low |
| CC(C)(C)SCCNC(=O)CSCc1ccc([N+](=O)[O-])cc1 | human ether-à-go-go-related gene (hERG) potassium channel (human) | low |
| COc1ccc(CCC(C)N(C)Cc2ccccc2)cc1 (stereo not shown) | human ether-à-go-go-related gene (hERG) potassium channel (human) | middle |
| CC(=O)Nc1ccc(CN2CCCC(C(=O)c3ccc(C(F)(F)F)cc3)C2)cc1 (stereo not shown) | human ether-à-go-go-related gene (hERG) potassium channel (human) | low |
| COc1ccc(CN2CN(c3ccc(Cl)cc3)C(=O)N(n3cnnc3)C2)cc1 | human ether-à-go-go-related gene (hERG) potassium channel (human) | middle |
| COc1cccc(C(=O)C2CCCN(Cc3ccccn3)C2)c1 (stereo not shown) | human ether-à-go-go-related gene (hERG) potassium channel (human) | middle |
| CC(O)CCc1ccc(O)cc1 (stereo not shown) | human ether-à-go-go-related gene (hERG) potassium channel (human) | high |
| COc1cccc(C(=O)C2CCCN(Cc3ccon3)C2)c1 (stereo not shown) | human ether-à-go-go-related gene (hERG) potassium channel (human) | high |
